assay: Cmax in mouse at 5 mg/kg, po; assay type: ADME, organism-based; parameters: dose 5 mg/kg, route oral; settings: in vivo
test-readout: Cmax (ng/mL)
Give the number; ng/mL is assumed, so skip it.

In: Bench note: what Cmax did CC/C(=C\c1ccccc1)[C@@H]1C[C@H]1NC1CC2(C1)CN(CCO)C2 show?
Out: 40

---

Target: UniProtKB P27338
Sequence (P27338 whole entry): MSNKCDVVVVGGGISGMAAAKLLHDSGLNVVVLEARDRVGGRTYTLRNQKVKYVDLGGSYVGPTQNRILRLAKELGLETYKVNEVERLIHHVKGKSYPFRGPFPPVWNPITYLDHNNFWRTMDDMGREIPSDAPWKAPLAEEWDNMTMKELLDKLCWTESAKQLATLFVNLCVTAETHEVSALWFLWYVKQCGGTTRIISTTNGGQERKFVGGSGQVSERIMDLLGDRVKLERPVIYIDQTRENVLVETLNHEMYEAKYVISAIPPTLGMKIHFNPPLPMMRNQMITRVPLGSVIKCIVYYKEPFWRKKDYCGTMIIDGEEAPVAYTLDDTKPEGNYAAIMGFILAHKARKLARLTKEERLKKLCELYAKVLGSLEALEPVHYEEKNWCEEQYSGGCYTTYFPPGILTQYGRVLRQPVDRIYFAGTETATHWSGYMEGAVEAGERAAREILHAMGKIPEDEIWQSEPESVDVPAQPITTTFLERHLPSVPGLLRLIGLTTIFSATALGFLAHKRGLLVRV
pIC50: −log10 of the molar value.
test-readout: pIC50

In: Bench note: what pIC50 did CC/C(=C\c1ccccc1)[C@@H]1C[C@H]1NC1CC2(C1)CN(CCO)C2 show?
Out: < 4.10

---

Biological target: Amine oxidase [flavin-containing] A (Homo sapiens, UniProt P21397)
Sequence (P21397 whole entry): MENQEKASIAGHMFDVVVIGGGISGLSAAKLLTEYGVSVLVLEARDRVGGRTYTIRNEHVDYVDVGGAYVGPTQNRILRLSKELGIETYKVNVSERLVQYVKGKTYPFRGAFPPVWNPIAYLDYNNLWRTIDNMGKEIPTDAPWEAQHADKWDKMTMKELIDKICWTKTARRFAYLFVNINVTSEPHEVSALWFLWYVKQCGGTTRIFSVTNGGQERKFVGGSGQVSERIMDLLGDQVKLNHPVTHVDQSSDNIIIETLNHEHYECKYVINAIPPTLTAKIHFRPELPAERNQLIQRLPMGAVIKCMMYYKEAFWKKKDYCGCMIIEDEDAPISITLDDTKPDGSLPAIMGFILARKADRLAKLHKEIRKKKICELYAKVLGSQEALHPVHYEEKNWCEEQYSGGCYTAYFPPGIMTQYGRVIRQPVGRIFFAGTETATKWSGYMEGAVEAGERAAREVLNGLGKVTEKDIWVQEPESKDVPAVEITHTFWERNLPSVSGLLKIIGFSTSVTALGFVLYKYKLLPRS
test-readout: IC50

In: Lab note: need IC50 with Amine oxidase [flavin-containing] A (Homo sapiens, UniProt P21397) for entry CC/C(=C\c1ccccc1)[C@@H]1C[C@H]1NC1CC2(C1)CN(CCO)C2 , please look it up.
Out: > 80 µM

---

microsomal CLint reference
experiment: Metabolic stability in dog liver microsomes assessed as intrinsic clearance; format: ADME, Canis lupus familiaris, Microsome; conditions: read-out: CLH

In: Bench note: what microsomal CLint did CC/C(=C\c1ccccc1)[C@@H]1C[C@H]1NC1CC2(C1)CN(CC(F)F)C2 show?
Out: 480 µL/min/mg

In: Bench note: what microsomal CLint did CC/C(=C\c1ccccc1)[C@@H]1C[C@H]1NC1CCN(CCO)CC1 show?
Out: 106 µL/min/mg

In: Bench note: what microsomal CLint did CC/C(=C\c1ccccc1)[C@@H]1C[C@H]1NC1CC2(C1)CN(S(C)(=O)=O)C2 show?
Out: 105 µL/min/mg

In: Bench note: what microsomal CLint did CC/C(=C\c1ccccc1)[C@@H]1C[C@H]1NC1CC2(C1)CN(C(C)=O)C2 show?
Out: 87 µL/min/mg

In: Bench note: what microsomal CLint did CC/C(=C\c1ccccc1)[C@@H]1C[C@H]1NC1CC2(CCN(CCO)CC2)C1 show?
Out: 39 µL/min/mg

In: Bench note: what microsomal CLint did CC/C(=C\c1ccccc1)[C@@H]1C[C@H]1NC1CC2(C1)CN(CCO)C2 show?
Out: 41 µL/min/mg

In: Bench note: what microsomal CLint did CC/C(=C\c1ccccc1)[C@@H]1C[C@H]1NC1CC2(CNC2)C1 show?
Out: 14 µL/min/mg

--- query ---
In: Bench note: what microsomal CLint did CC/C(=C\c1ccccc1)[C@@H]1C[C@H]1NC1CC2(C1)CN(C1COC1)C2 show?
Out: 283 µL/min/mg
